- ASSAY_COMMENT: Cytotoxicity against HUVEC assessed as cell viability at 60 ug/mL after 24 hrs by MTT assay
- Assay type: cell-based
- MEASUREMENT_CONDITIONS: human, HUVEC cells; read-out: Activity
So I've got a bunch of compounds here, and I need their viability at 24 h, 60 ug/mL values.
Remember to put the unit after the number in your answer.

Here are 6 compounds. What values of viability at 24 h, 60 ug/mL were reported for them?
1. CC1=NN(c2ccccc2)C(=O)C1C(=O)c1ccco1 (stereo unspecified)
2. Cc1[nH]n(-c2ccccc2)c(=O)c1C(=O)CC(C)(C)C
3. CC1=NN(c2ccccc2)C(=O)C1C(=O)c1ccccc1 (stereo unspecified)
4. CC1=NN(c2ccccc2)C(=O)C1C(=O)C(C)(C)C (stereo unspecified)
5. CC(=O)C1C(=O)N(c2ccccc2)N=C1c1ccccc1 (stereo unspecified)
6. CC1=NN(c2ccccc2)C(=O)C1C(=O)CCC1CCCC1 (stereo unspecified)

Resp:
1: 96.2%; 2: 97.1%; 3: 95.8%; 4: 96.1%; 5: 97.9%; 6: 98.6%
